Provide the reported MIC of each item.
- Test system: Legionella pneumophila MMX 7515
- measurement-protocol: microbe, parasite or virus in culture
- Type: cell-based
- experimental-parameters: Legionella pneumophila, MMX7515, 48 h, read-out: MIC (in vitro activity)
Lab book: enter the figure in µg/mL, no units written.

Give recorded MIC. CN[C@H](CC(C)C)C(=O)N[C@H]1C(=O)N[C@@H](CC(N)=O)C(=O)N[C@H]2C(=O)N[C@H]3C(=O)N[C@H](C(=O)N[C@H](C(=O)O)c4cc(O)cc(O)c4-c4cc3ccc4O)[C@H](O)c3ccc(c(Cl)c3)Oc3cc2cc(c3O[C@@H]2O[C@H](CO)[C@@H](O)[C@H](O)[C@H]2O[C@H]2C[C@](C)(N)[C@H](O)[C@H](C)O2)Oc2ccc(cc2Cl)[C@H]1O [VAN, vancomycin]
0.25

Give MIC for C[C@H]1COc2c(N3CCN(C)CC3)c(F)cc3c(=O)c(C(=O)O)cn1c23 [LVX, levofloxacin]
0.5

Using known records, supply MIC for C=C(C)C1CCC(C)=CC1c1c(O)cc(CCCCC)cc1O (stereo not shown) [CBD]
1

Specify reported MIC for the compound shown: C[C@@H](O)[C@H]1C(=O)N2C(C(=O)O)=C(S[C@@H]3CN[C@H](C(=O)N(C)C)C3)[C@H](C)[C@H]12 [MEM, meropenem]
0.5
